target: Human recombinant MMP-14 (Homo sapiens, UniProt P50281); construct: The catalytic domain enzyme was expressed in E. coli inclusion bodies, solubilized in urea; made in house; test: In vitro MMP inhibition, Ki determination (fluorogenic substrate II); type: biochemical; conditions: value in parentheses
measurement.label: Ki (µM)

Examples with their reported Ki follow.
{"smiles.record": "CCCCC(=O)CCCOc1ccc(S(=O)(=O)C2(C(=O)NO)CCOCC2)cc1", "observed.measurement": 0.681}
{"smiles.record": "C#Cc1ccc(-c2cccc(CCCOc3ccc(S(=O)(=O)C4(C(=O)NO)CCN(CCOC)CC4)cc3)c2)cc1", "observed.measurement": 4.3}
{"smiles.record": "COCCN1CCC(C(=O)NO)(S(=O)(=O)c2ccc(OCCc3ccc(-c4ccc(C#N)cc4)cc3)cc2)CC1", "observed.measurement": 3.09}

(1) CCCCCCCOc1ccc(S(=O)(=O)C2(C(=O)NO)CCOCC2)cc1
(2) COCCN1CCC(C(=O)NO)(S(=O)(=O)c2ccc(OCCCc3cccc(-c4cccs4)c3)cc2)CC1
API: POST /compare with 1 and 2 ; response names the item with higher Ki. Could you answer with the label of the item you picked? 2

(1) O=C(NO)C1(S(=O)(=O)c2ccc(OCCc3cccnc3)cc2)CCOCC1
(2) O=C(NO)C1(S(=O)(=O)c2ccc(OCCCOc3cncnc3)cc2)CCOCC1
Hello, I am sorting some records. Could you say if 1 or 2 has the smaller Ki value? Give the chosen item's label as your response. 1
(1: 0.0522 µM, 2: 0.845 µM)

(1) CCCc1ccc(COc2ccc(S(=O)(=O)C3(C(=O)NO)CCOCC3)cc2)cn1
(2) O=C(COc1ccc(S(=O)(=O)C2(C(=O)NO)CCOCC2)cc1)c1cccc(-c2ccccc2)c1
Which entry has a larger number for Ki, 1 or 2 ? Lab log: write the label of the selected item as the result. 2
(2: 4.4 µM, 1: 2.18 µM)

(A) COCCN1CCC(C(=O)NO)(S(=O)(=O)c2ccc(OCCc3cccc(-c4ccncc4)c3)cc2)CC1
(B) O=C(NO)C1(S(=O)(=O)c2ccc(OCCCOc3cccnc3)cc2)CCOCC1
(C) O=C(NCCOc1ccc(S(=O)(=O)C2(C(=O)NO)CCOCC2)cc1)c1c[nH]c2ccccc12
Form: Sort by [Ki] Order [ ascending ] Put the labels in the requested order and list them out. B, A, C

(A) CCC(=O)c1cccc(CCCOc2ccc(S(=O)(=O)C3(C(=O)NO)CCOCC3)cc2)c1
(B) O=C(Cc1csc2ccccc12)NCCOc1ccc(S(=O)(=O)C2(C(=O)NO)CCOCC2)cc1
Kindly identify which of A and B has the larger recorded Ki value. // respond with label for picked entry A

----------
target: Human recombinant MMP-14 (Homo sapiens, UniProt P50281); construct: The catalytic domain enzyme was expressed in E. coli inclusion bodies, solubilized in urea; made in house; assay: In vitro MMP inhibition, IC50 determination (fluorogenic substrate I); type: biochemical; conditions: value outside parentheses
pIC50: −log10 of the molar value.
measurement.label: pIC50

(I) COc1ccc(C(=O)CCOc2ccc(S(=O)(=O)C3(C(=O)NO)CCOCC3)cc2)cc1 [Example 494]
(II) O=C(NO)C1(S(=O)(=O)c2ccc(OCCOCc3cccnc3)cc2)CCOCC1 [Example 518]
(III) O=C(CCOc1ccc(S(=O)(=O)C2(C(=O)NO)CCOCC2)cc1)c1ccccc1 [Example 495]
(IV) O=C(NO)C1(S(=O)(=O)c2ccc(OCCOc3ccc4c(c3)OCO4)cc2)CCOCC1 [Example 665]
Order these by pIC50, descending, and give the full ranking. Give the labels in the order requested. I, III, II, IV
(I: 6.71, III: 6.30, II: 6.01, IV: 5.67)

----------
biological target: Human recombinant MMP-2 (Homo sapiens); construct: made in house; host or cells: MMP-2-transfected p2AHT2 cells; assay: In vitro MMP inhibition, Ki determination (fluorogenic substrate II); format: biochemical; conditions: value in parenthesis
Sequence (P08253 110-660): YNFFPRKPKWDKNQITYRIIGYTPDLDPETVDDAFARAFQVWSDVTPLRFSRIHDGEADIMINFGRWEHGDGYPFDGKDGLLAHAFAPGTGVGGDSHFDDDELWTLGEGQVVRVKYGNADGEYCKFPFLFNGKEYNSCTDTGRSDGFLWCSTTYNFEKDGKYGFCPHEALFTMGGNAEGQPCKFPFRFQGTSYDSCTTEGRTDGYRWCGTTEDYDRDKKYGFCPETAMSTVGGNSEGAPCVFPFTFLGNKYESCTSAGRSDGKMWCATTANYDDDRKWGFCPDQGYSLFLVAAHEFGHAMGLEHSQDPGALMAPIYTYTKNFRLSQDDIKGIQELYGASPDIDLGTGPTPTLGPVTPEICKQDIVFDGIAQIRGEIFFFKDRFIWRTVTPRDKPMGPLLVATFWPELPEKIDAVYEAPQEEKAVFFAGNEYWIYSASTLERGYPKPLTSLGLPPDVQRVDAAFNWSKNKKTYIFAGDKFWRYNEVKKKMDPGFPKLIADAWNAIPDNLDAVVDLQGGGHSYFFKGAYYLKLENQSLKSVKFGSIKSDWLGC
measurement.label: Ki (nM)

{"smiles.record": "Cc1cc(-c2cccc(CCCOc3ccc(S(=O)(=O)C4(C(=O)NO)CCOCC4)cc3)c2)ccc1F", "measurement.label": "Ki", "observed.measurement": 5500}

(a) O=C(NO)C1(S(=O)(=O)c2ccc(OCCCc3cccc(-c4ccccn4)c3)cc2)CCOCC1
(b) COCCN1CCC(C(=O)NO)(S(=O)(=O)c2ccc(OCCCc3cccc(-c4ccc(F)cc4)c3)cc2)CC1
(c) O=C(NO)C1(S(=O)(=O)c2ccc(OCCCc3cccc(Br)c3)cc2)CCOCC1
(d) Cc1ccc(-c2cccc(CCOc3ccc(S(=O)(=O)C4(C(=O)NO)CCOCC4)cc3)c2)cc1
Arrange the 4 entries by Ki so the values rise. Answer format: the labels, ordered as requested. c, a, b, d

----------
molecular target: Human recombinant MMP-14 (Homo sapiens, UniProt P50281); construct: The catalytic domain enzyme was expressed in E. coli inclusion bodies, solubilized in urea; made in house; assay: In vitro MMP inhibition, IC50 determination (fluorogenic substrate I); type: biochemical; details: value outside parentheses
measurement.label: IC50

See these solved cases before continuing.
{"compound": "CN(C)C(=O)c1cccc(OCCOc2ccc(S(=O)(=O)C3(C(=O)NO)CCOCC3)cc2)c1 [Example 666]", "IC50": "> 10 µM"}
{"compound": "CC(=O)Nc1cccc(OCCOc2ccc(S(=O)(=O)C3(C(=O)NO)CCOCC3)cc2)c1 [Example 670]", "IC50": "2.37 µM"}
{"compound": "COc1ccc(-c2nnc(CCCOc3ccc(S(=O)(=O)C4(C(=O)NO)CCOCC4)cc3)o2)cc1 [Example 501]", "IC50": "> 10 µM"}

Which IC50 reading was recorded for the compound O=C(NO)C1(S(=O)(=O)c2ccc(OCCCS(=O)(=O)NC34CC5CC(CC(C5)C3)C4)cc2)CCOCC1 [Example 645] ? > 10 µM

----------
target: Human recombinant MMP-1 (Homo sapiens, UniProt P03956); construct: made in house; host or cells: MMP-1-transfected HT-1080 cells (spent media); test: In vitro MMP inhibition, Ki determination (fluorogenic substrate II); format: biochemical; settings: value in parenthesis
Sequence (P03956 100-469): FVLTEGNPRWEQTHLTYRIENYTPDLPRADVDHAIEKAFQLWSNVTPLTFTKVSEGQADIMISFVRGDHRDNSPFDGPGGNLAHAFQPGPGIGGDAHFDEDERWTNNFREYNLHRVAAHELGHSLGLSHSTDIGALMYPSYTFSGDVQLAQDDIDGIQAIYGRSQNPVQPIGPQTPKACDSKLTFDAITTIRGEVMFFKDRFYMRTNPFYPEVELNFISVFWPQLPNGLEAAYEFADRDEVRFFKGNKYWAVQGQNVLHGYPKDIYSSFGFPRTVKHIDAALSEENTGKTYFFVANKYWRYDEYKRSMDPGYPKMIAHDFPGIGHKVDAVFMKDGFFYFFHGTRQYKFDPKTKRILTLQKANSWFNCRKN
Entries and their measured Ki follow.

Some compounds with known Ki results, for comparison:
{"smiles.record": "COCCN1CCC(C(=O)NO)(S(=O)(=O)c2ccc(OCCCc3nc(-c4ccccc4OC(F)(F)F)no3)cc2)CC1", "system": "Human recombinant MMP-1 (Homo sapiens, UniProt P03956)", "Ki": "> 10 µM"}
{"smiles.record": "Cc1ccc(-c2cccc(CCOc3ccc(S(=O)(=O)C4(C(=O)NO)CCOCC4)cc3)c2)cc1", "system": "Human recombinant MMP-1 (Homo sapiens, UniProt P03956)", "Ki": "> 10 µM"}
{"smiles.record": "O=C(NO)C1(S(=O)(=O)c2ccc(OCCc3cccc(-c4ccccc4F)c3)cc2)CCOCC1", "system": "Human recombinant MMP-1 (Homo sapiens, UniProt P03956)", "Ki": "> 10 µM"}

Param item = `O=C(NO)C1(S(=O)(=O)c2ccc(OCCCc3cccc(-c4ccccn4)c3)cc2)CCOCC1` ; retrieve measured Ki. 8.79 µM

Look at this compound and give its reported Ki. `O=C1Nc2ccc(-c3noc(CCCOc4ccc(S(=O)(=O)C5(C(=O)NO)CCN(C6CC6)CC5)cc4)n3)cc21` > 10 µM

// returns reported Ki for input `O=C(NO)C1(S(=O)(=O)c2ccc(OCCc3cccc(-c4cccnc4)c3)cc2)CCOCC1` 3.58 µM

Given the compound `O=C(NO)C1(S(=O)(=O)c2ccc(OCCc3cccc(-c4cc(F)cc(F)c4)c3)cc2)CCOCC1` , what is its reported Ki? > 10 µM

What value of Ki has been recorded for this entry: `O=C(NO)C1(S(=O)(=O)c2ccc(OCCCc3cccc(-c4ccc(F)cc4)c3)cc2)CCN(C2CC2)CC1` > 10 µM

----------
molecular target: Human recombinant MMP-13 (Homo sapiens, UniProt P45452); construct: made in house; host or cells: baculovirus / insect cells; assay: In vitro MMP inhibition, IC50 determination (fluorogenic substrate I); type: biochemical; settings: value outside parentheses
pIC50: −log10 of the molar value.
measurement.label: pIC50

{"molecule": "COC(=O)c1cccc(OCCOc2ccc(S(=O)(=O)C3(C(=O)NO)CCOCC3)cc2)c1 [Example 668]", "measurement.label": "pIC50", "observed.measurement": 8.82}
{"molecule": "CCN1CCC(C(=O)NO)(S(=O)(=O)c2ccc(OCCCSc3nc4ccccc4s3)cc2)CC1 [Example 591]", "measurement.label": "pIC50", "observed.measurement": 9.52}

(a) O=C(CCCOc1ccc(S(=O)(=O)C2(C(=O)NO)CCOCC2)cc1)Nc1cccc(I)c1 [Example 570]
(b) O=C(NO)C1(S(=O)(=O)c2ccc(OCCCc3cccc(-c4ccc(F)cc4F)c3)cc2)CCOCC1 [Example 630]
(c) COc1ccc(-c2nnc(CCCOc3ccc(S(=O)(=O)C4(C(=O)NO)CCOCC4)cc3)o2)cc1 [Example 501]
I would appreciate it if you could sort these 3 molecules by pIC50, starting from the smallest number. Provide the labels, sequenced as the question asks. c, b, a
(c: 8.85, b: 9.40, a: 9.70)

(1) O=C(NCCNc1ccc(S(=O)(=O)C2(C(=O)NO)CCOCC2)cc1)c1cc2ccccc2o1 [Example 621]
(2) O=C(CCCOc1ccc(S(=O)(=O)C2(C(=O)NO)CCOCC2)cc1)N1CCc2ccccc21 [Example 577]
Out of 1 and 2 , name the one with the higher pIC50. Could you answer with the label of the item you picked? 2

(1) CC(C)CCCc1cccc(CCCOc2ccc(S(=O)(=O)C3(C(=O)NO)CCOCC3)cc2)c1 [Example 612]
(2) O=C(NO)C1(S(=O)(=O)c2ccc(OCCOCc3ccccc3)cc2)CCOCC1 [Example 653]
Lower value for measured pIC50? Options: 1 , 2 Choose, then provide that item's label. 1
(1: 7.79, 2: 8.25)

(a) CN(CCCOc1ccc(S(=O)(=O)C2(C(=O)NO)CCN(C3CC3)CC2)cc1)C(=O)C1C2CC3CC(C2)CC1C3 (stereo not shown) [Example 644]
(b) O=C(NO)C1(S(=O)(=O)c2ccc(OCCCc3cc(-c4ccc(F)c(F)c4)cs3)cc2)CCOCC1 [Example 580]
// max by pIC50 over [ a , b ] State the label of the item chosen. b

(P) O=C(NO)C1(S(=O)(=O)c2ccc(OCCCc3cccc(-c4ccc([N+](=O)[O-])cc4)c3)cc2)CCOCC1 [Example 626]
(Q) O=C(NO)C1(S(=O)(=O)c2ccc(OCCCc3cccc(-c4ccccc4O)c3)cc2)CCOCC1 [Example 636]
(R) O=C(NO)C1(S(=O)(=O)c2ccc(OCCCc3cccc(-c4cccc5ccccc45)c3)cc2)CCOCC1 [Example 638]
Rank the 3 molecules: largest pIC50 first, smallest last. API: response body holds the labels in the requested order. P, Q, R
(P: 9.40, Q: 8.49, R: 6.40)

(1) O=C(NO)C1(S(=O)(=O)c2ccc(OCCCc3cncc(-c4ccc(F)cc4)c3)cc2)CCOCC1 [Example 523]
(2) O=C(NO)C1(S(=O)(=O)c2ccc(OCCCOCc3ccccn3)cc2)CCOCC1 [Example 519]
Compare pIC50: is it lower for 1 or for 2 ? To answer, give the label that identifies your chosen option. 2
